Please provide measured GI50 for the entries that follow.
Test system: LOX IMVI
assay.info: NCI tumour cell line growth inhibition, 48 h
Calls of active or inactive are those of the source. Cut-off read from the data, not from the text of the source: active = GI50 up to about 1.1 µM and inactive = higher.

Please review the following examples before continuing.
CC1(C)OC1CC/C(=C/CBr)CBr (stereo not given): 10.2 µM (inactive)
COc1cc(N(CCC#N)CCC#N)ccc1C(=N/NC(=O)c1cc(Br)ccc1O)/N=N/c1ccc(C)cc1: 17.9 µM (inactive)
Cc1ccc(S(=O)(=O)Nn2c(S)c(C#N)c(-c3ccc(N(C)C)cc3)c(C#N)c2=O)cc1: 22.1 µM (inactive)
CC(C)=CC1C(C(=O)Oc2ccccc2C(C)C)C1(C)C (stereo not given): 17.7 µM (inactive)

Give me GI50 for each of these compounds, listed below.
1. CC(=O)n1c(=O)c2cc3c(=O)n(-c4cccc(C#N)c4)c(=O)c3cc2c1=O
2. COc1cccc2c1C(=O)c1ccc3cc(CO)cc(O)c3c1C2=O

1: > 100 µM (inactive); 2: 1.8 µM (inactive)

Below are 4 compounds. Give each one its GI50.
1. CCOC(=O)C1CCC(=O)N1C(=O)c1ccc(Cl)cc1 (stereo not given)
2. CCOC(=O)C(C(=O)OCC)C1C=CCC2c3ccccc3COCC21 (stereo not given)
3. Cc1c2c(c(C)n1-c1ccccc1)C(=O)N(CCN1CCN(c3cccc(C(F)(F)F)c3)CC1)C2=O
4. NC(=O)Oc1ccccc1

1. > 100 µM (inactive)
2. 44.2 µM (inactive)
3. 37.1 µM (inactive)
4. > 100 µM (inactive)

Measured values drawn from ChEMBL document CHEMBL1201862 for this set.
